Reference source: ChEMBL document CHEMBL1201862

Tested on: CAKI-1
Assay: NCI tumour cell line growth inhibition, 48 h
Calls of active or inactive are those of the source. Rule as the data show it: active = GI50 up to about 1.1 µM and inactive = higher.
recorded-endpoint: GI50

>  <smiles-text>
C/C=N\n1c(C)c(C#N)c(C#N)c1N

>  <test-value>
> 100 µM (inactive)

$$$$
>  <smiles-text>
O=C(O/N=C1\CCCC\C1=C/c1ccccc1)c1ccc([N+](=O)[O-])cc1

>  <test-value>
> 100 µM (inactive)

$$$$
>  <smiles-text>
CN(C)CCNC(=O)c1cccc2c1nc(-c1ccccc1)c1ccccc12

>  <test-value>
3.74 µM (inactive)

$$$$
>  <smiles-text>
c1ccc([P+](c2ccccc2)(c2ccccc2)c2ccc([P+](c3ccccc3)(c3ccccc3)c3ccccc3)cc2)cc1

>  <test-value>
> 100 µM (inactive)

$$$$
>  <smiles-text>
COc1cccc2c1-c1nc(N)c3c(OC)cccc3c1C2=O

>  <test-value>
> 100 µM (inactive)

$$$$
